Quick reference: GI50 of the listed items.
System: SF-295
experiment-notes: NCI tumour cell line growth inhibition, 48 h
The source made the active and inactive calls. No stated cut-off is given here; in the data, active = GI50 up to about 1.1 µM and inactive = higher.

| compound | GI50 |
| --- | --- |
| CCc1ccc(Nc2cc(=O)[nH]c(SCc3ccccc3)n2)cc1 | 46.2 µM (inactive) |
| N#Cc1cc(NC(=O)c2ccccc2)c(=O)n2c1[nH]c1ccccc12 | 71 µM (inactive) |
| CCC1=NC(N/N=C/c2ccco2)=N/C1=C\c1ccco1 | > 100 µM (inactive) |
| O=C1C(/N=N/c2ccc(-c3nc4ccccc4o3)cc2)NC(=S)N1c1ccccc1 (stereo unspecified) | > 100 µM (inactive) |
| CN1CCC2(CC1)/C(=N/C1CCCCC1)NC(=O)N2c1ccccc1 | > 100 µM (inactive) |
| Cc1ccc(NCC(=O)N2CC(=O)Nc3ccccc32)cc1 | > 100 µM (inactive) |
| CCOC(=O)C1(Cc2ccccc2)C=CN(C(=O)c2ccccc2)C=C1 | 36 µM (inactive) |
| NC(=O)c1nnc2ccc(F)cc2c1N | > 100 µM (inactive) |
| C1=CC=C2NCCCCCCC/N=C3/C=CC=CC=C3NCCCCCCC/N=C\2C=C1 | 47.5 µM (inactive) |
| CCCCNC(=S)Nn1c(-c2ccccc2)nc2ccccc2c1=O | > 100 µM (inactive) |
| CC1=C[C@H](C[C@]2(C)c3c(c4c(C)cccc4oc3=O)O[C@@H]2C)OC1=O | > 100 µM (inactive) |

----------
Quick reference: GI50 of the listed items.
Test system: LOX IMVI
experiment-notes: NCI tumour cell line growth inhibition, 48 h
Active and inactive are the calls of the source. Cut-off read from the data, not from the text of the source: active = GI50 up to about 1.1 µM and inactive = higher. Starred links: 1 amine or outer side, 2 acyl side, 3 side chain; linkers in the order of their positions; H or OH if unused. Positions of bridges follow the written chain, without caps; N, C: chain ends. Non-standard residues stand in square brackets, D forms with d. Residues, ends and D or L forms follow the SMILES beside them. ξ: configuration not given here. X37 = CC[C@H](C)[C@@H](N[*:1])[C@@H](O)CC(=O)O[C@H](C(=O)[C@H](C)C(=O)[*:2])C(C)C; NMeY = CN[C@@H](Cc1ccc(O)cc1)C(=O)O; dNMeL = CN[C@H](CC(C)C)C(=O)O; ξΔPro = O=C(O)C1C=CCN1

| molecule | GI50 |
| --- | --- |
| COc1cccc(/C=C\c2ccc(O)cc2)c1 | 14.9 µM (inactive) |
| COC(=O)c1oc([N+](=O)[O-])c(Cl)c1Cl | 6.05 µM (inactive) |
| CC12CCC(C1)C(C)(C)C2OC(=O)c1ccccc1N (stereo unspecified) | 18.2 µM (inactive) |
| NC(=O)c1nnc2ccc(F)cc2c1N | 69 µM (inactive) |
| CSC1(C(=O)O)C2CCC3C2CCC31 (stereo unspecified) | > 100 µM (inactive) |
| Cc1cn(C2CCC(CO)(CF)O2)c(=O)[nH]c1=O (stereo unspecified) | > 100 µM (inactive) |
| Cc1cc(C)c(S(=O)(=O)ONC(=O)OC(C)(C)C)c(C)c1 | > 100 µM (inactive) |
| CCc1ccc(Nc2cc(=O)[nH]c(SCc3ccccc3)n2)cc1 | > 100 µM (inactive) |
| CC[C@H](C)[C@H]1NC(=O)[C@@H](NC(=O)[C@@H](CC(C)C)N(C)C(=O)C2C=CCN2)[C@@H](C)OC(=O)[C@H](Cc2ccc(OC)cc2)N(C)C(=O)[C@@H]2CCCN2C(=O)[C@H](CC(C)C)NC(=O)[C@@H](C)C(=O)[C@H](C(C)C)OC(=O)C[C@@H]1O (stereo partly specified) (H-[ξΔPro][dNMeL]T[X37]LP[NMeY](Me); ester 3-C) | < 0.005 µM (active) |
| Nn1c(-c2ccccc2)n[nH]c1=O | > 100 µM (inactive) |
| CC(C)(C)C(=O)CC1=Nc2ccccc2SC1(O)CC(=O)C(C)(C)C (stereo unspecified) | 17.1 µM (inactive) |
| CC(C)=CC(C)C(C(O)CCC1(c2ccoc2)OCCO1)S(=O)(=O)c1ccccc1 (stereo unspecified) | > 100 µM (inactive) |
| CC1=CC(=O)CC(C)(C)C1/C=C/C(C)=C/C=C/C(C)=C/C=C/C=C(C)/C=C/C=C(C)/C=C/C1=C(C)CC(O)CC1(C)C (stereo unspecified) | 31.3 µM (inactive) |
| CC(C)(C)OC(=O)N1C(c2cccnc2)=CC[C@H]2C3CC=C(c4cccnc4)[C@@]3(C)CC[C@@H]21 (stereo partly specified) | 2.71 µM (inactive) |
| Cc1c(F)c(N)c2c(=O)cc(-c3ccc(NC(=O)CN(C)C)c(F)c3)oc2c1F | 33 µM (inactive) |
| COc1c2c3c4c(c(OC)c(=O)c5c(O)cc(OC)c(c6c(OC)cc(O)c(c1=O)c63)c54)C(C(C)O)C2C(C)O (stereo unspecified) | 0.883 µM (active) |
| COc1ccc(-c2nc(SCC(=O)NNC(=S)Nc3ccccc3)[nH]c2-c2ccc(OC)cc2)cc1 | 19.6 µM (inactive) |
| CCOC(=O)Oc1ccc2c(c1)c(=O)c1c(NCCCN(CC)CC)ccc3nnn2c31 | 2.52 µM (inactive) |
| CCS(CC)(CC)CC1CCCC2=CCC(P(=O)(c3ccccc3)c3ccccc3)CC21 (stereo unspecified) | 14.7 µM (inactive) |
| Nc1nc(O)c2[nH]nnc2n1 | 0.223 µM (active) |
| COc1ccc2nccc(C3=CCC4CCN(C(=O)c5ccccc5)C3C4)c2c1 (stereo unspecified) | > 100 µM (inactive) |
